biological target: Adenosine receptor A3 (Homo sapiens); further: assay procedure not described here
Sequence (P0DMS8 whole entry): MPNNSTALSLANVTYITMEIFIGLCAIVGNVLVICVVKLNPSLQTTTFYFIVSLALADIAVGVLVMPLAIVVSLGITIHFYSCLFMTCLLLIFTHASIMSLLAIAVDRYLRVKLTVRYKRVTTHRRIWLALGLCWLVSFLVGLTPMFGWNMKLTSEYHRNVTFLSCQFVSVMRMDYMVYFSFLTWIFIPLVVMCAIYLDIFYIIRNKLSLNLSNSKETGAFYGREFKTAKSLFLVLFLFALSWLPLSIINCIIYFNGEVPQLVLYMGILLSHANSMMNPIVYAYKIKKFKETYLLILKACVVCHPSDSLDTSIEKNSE
parameter: AC50

Reference set (5 entries):
{"columns": ["compound", "AC50"],
 "data": [
  ["CO/N=C(\\C(=O)N[C@@H]1C(=O)N2C(C(=O)O)=CCS[C@H]12)c1csc(N)n1 [CEFTIZOXIME]", "> 30 µM"],
  ["O=c1c(O)c(-c2ccc(O)c(O)c2)oc2cc(O)cc(O)c12 [QUERCETIN]", "4.2 µM"],
  ["CC(C(=O)O)c1ccc2c(c1)CC(=O)c1ccccc1S2 (stereo not drawn) [ZALTOPROFEN]", "> 30 µM"],
  ["CNCCc1ccc(OC(=O)C(C)C)c(OC(=O)C(C)C)c1 [IBOPAMINE]", "> 30 µM"],
  ["CC(C)Cc1ccc([C@H](C)C(=O)O)cc1 [DEXIBUPROFEN]", "> 30 µM"]
]}

Lookup result for OC[C@H]1O[C@@H](Oc2cc(O)cc(/C=C/c3ccc(O)cc3)c2)[C@H](O)[C@@H](O)[C@@H]1O [PICEID] ; measured AC50: > 30 µM

Lookup result for CCC1(CCC(C)C)C(=O)NC(=O)NC1=O [AMOBARBITAL] ; measured AC50: > 10 µM

Lookup result for CN[C@@H](C)[C@@H](O)c1ccccc1 [PSEUDOEPHEDRINE] ; measured AC50: > 30 µM

These measurements were taken from ChEMBL document CHEMBL5291721.
